# System: DNA
# METHOD DESCRIPTION: Binding affinity to calf thymus DNA assessed as change in melting temperature at 0.5 drug/DNA ratio by spectrophotometry
# Type: nucleic-acid assay
# CONDITION SUMMARY: Bos taurus
Lab note: compare ΔTm with 3 °C, writing satisfied if less and not satisfied if equal or more.

Here are 2 compounds together with their reported answers.
Problem: Confirm or reject: ΔTm of `CN(C)c1ccc2c(c1)c1c(sc3ccccc31)c(=O)n2C` lies strictly below 3 °C
Result: satisfied

Problem: Confirm or reject: ΔTm of `Cn1c(=O)c2sc3ccccc3c2c2cc([N+](C)(C)C)ccc21` lies strictly below 3 °C
Result: satisfied

Continuing:
Problem: Confirm or reject: ΔTm of `CC(=O)Nc1ccc2c(c1)c1c(sc3ccccc31)c(=O)n2CCCN(C)C` lies strictly below 3 °C
Result: not satisfied

Problem: Confirm or reject: ΔTm of `C[N+](C)(C)c1ccc2[nH]c(=O)c3sc4ccccc4c3c2c1` lies strictly below 3 °C
Result: not satisfied

Problem: Confirm or reject: ΔTm of `Nc1ccc2[nH]c(=O)c3sc4ccccc4c3c2c1` lies strictly below 3 °C
Result: satisfied

Problem: Confirm or reject: ΔTm of `C[N+](C)(C)c1ccc(NC(=O)c2sc3ccccc3c2Cl)cc1` lies strictly below 3 °C
Result: satisfied

###

# Test system: DNA
# METHOD DESCRIPTION: Binding affinity to calf thymus DNA assessed as change in melting temperature at 0.25 drug/DNA ratio by spectrophotometry
# Type: nucleic-acid assay
# CONDITION SUMMARY: Bos taurus
Active and inactive are the calls of the source. The calls are words filed in the database; no cut-off is given here.
ASSAY METRIC: Activity

Completed entries (count: 6):
Problem: Using the record for `CN(C)c1ccc2[nH]c(=O)c3sc4ccccc4c3c2c1` , state its measured Activity.
Result: inactive

Problem: Using the record for `CC(=O)Nc1ccc2[nH]c(=O)c3sc4ccccc4c3c2c1` , state its measured Activity.
Result: inactive

Problem: Using the record for `Nc1ccc2[nH]c(=O)c3sc4ccccc4c3c2c1` , state its measured Activity.
Result: inactive

Problem: Using the record for `Nc1ccc(NC(=O)c2sc3ccccc3c2Cl)cc1` , state its measured Activity.
Result: inactive

Problem: Using the record for `O=C(Nc1ccc([N+](=O)[O-])cc1)c1sc2ccccc2c1Cl` , state its measured Activity.
Result: inactive

Problem: Using the record for `CN(C)c1ccc(NC(=O)c2sc3ccccc3c2Cl)cc1` , state its measured Activity.
Result: inactive

Continuing:
Problem: Using the record for `CC(=O)Nc1ccc(NC(=O)c2sc3ccccc3c2Cl)cc1` , state its measured Activity.
Result: inactive

###

# System: DNA
# METHOD DESCRIPTION: Binding affinity to calf thymus DNA assessed as change in melting temperature at 1 drug/DNA ratio by spectrophotometry
# Type: nucleic-acid assay
# CONDITION SUMMARY: Bos taurus
Active and inactive are the calls of the source. The rule behind the calls is not given here.
ASSAY METRIC: Activity

Completed entries (count: 5):
Problem: Using the record for `Nc1ccc2[nH]c(=O)c3sc4ccccc4c3c2c1` , state its measured Activity.
Result: inactive

Problem: Using the record for `CC(=O)Nc1ccc(NC(=O)c2sc3ccccc3c2Cl)cc1` , state its measured Activity.
Result: inactive

Problem: Using the record for `Nc1ccc(NC(=O)c2sc3ccccc3c2Cl)cc1` , state its measured Activity.
Result: inactive

Problem: Using the record for `O=C(Nc1ccc([N+](=O)[O-])cc1)c1sc2ccccc2c1Cl` , state its measured Activity.
Result: inactive

Problem: Using the record for `CC(=O)Nc1ccc2[nH]c(=O)c3sc4ccccc4c3c2c1` , state its measured Activity.
Result: inactive

Continuing:
Problem: Using the record for `CN(C)c1ccc2[nH]c(=O)c3sc4ccccc4c3c2c1` , state its measured Activity.
Result: inactive

Problem: Using the record for `CN(C)c1ccc(NC(=O)c2sc3ccccc3c2Cl)cc1` , state its measured Activity.
Result: inactive

###

# System: DNA
# METHOD DESCRIPTION: Binding affinity to calf thymus DNA assessed as change in melting temperature at 1 drug/DNA ratio by spectrophotometry
# Type: nucleic-acid assay
# CONDITION SUMMARY: Bos taurus
Entries and their ΔTm values follow.
API: value field is a number in °C; no unit string.

Completed entries (count: 4):
Problem: Using the record for `CN(C)c1ccc2c(c1)c1c(sc3ccccc31)c(=O)n2C` , state its measured ΔTm.
Result: 3

Problem: Using the record for `C[N+](C)(C)c1ccc2[nH]c(=O)c3sc4ccccc4c3c2c1` , state its measured ΔTm.
Result: 16.9

Problem: Using the record for `C[N+](C)(C)c1ccc(NC(=O)c2sc3ccccc3c2Cl)cc1` , state its measured ΔTm.
Result: 3

Problem: Using the record for `Cn1c(=O)c2sc3ccccc3c2c2cc([N+](C)(C)C)ccc21` , state its measured ΔTm.
Result: 5.9

Continuing:
Problem: Using the record for `CC(=O)Nc1ccc2c(c1)c1c(sc3ccccc31)c(=O)n2CCCN(C)C` , state its measured ΔTm.
Result: 19

###

Entries and their Activity values follow.
# System: DNA
# METHOD DESCRIPTION: Binding affinity to calf thymus DNA assessed as hypochromic effect at 20 uM by UV-Visible spectroscopy relative to control
# Type: nucleic-acid assay
# CONDITION SUMMARY: Bos taurus

Completed entries (count: 5):
Problem: Using the record for `Cn1c(=O)c2sc3ccccc3c2c2cc([N+](C)(C)C)ccc21` , state its measured Activity.
Result: 48%

Problem: Using the record for `Nc1ccc2[nH]c(=O)c3sc4ccccc4c3c2c1` , state its measured Activity.
Result: 58%

Problem: Using the record for `C[N+](C)(C)c1ccc2[nH]c(=O)c3sc4ccccc4c3c2c1` , state its measured Activity.
Result: 49%

Problem: Using the record for `CC(=O)Nc1ccc2c(c1)c1c(sc3ccccc31)c(=O)n2CCCN(C)C` , state its measured Activity.
Result: 24%

Problem: Using the record for `C[N+](C)(C)c1ccc(NC(=O)c2sc3ccccc3c2Cl)cc1` , state its measured Activity.
Result: 23%

Shifting focus to the compound that follows.
Problem: Using the record for `CN(C)c1ccc2c(c1)c1c(sc3ccccc31)c(=O)n2C` , state its measured Activity.
Result: 46%

###

# Test system: DNA
# METHOD DESCRIPTION: Binding affinity to calf thymus DNA assessed as change in melting temperature at 0.5 drug/DNA ratio by spectrophotometry
# Assay type: nucleic-acid assay
# CONDITION SUMMARY: Bos taurus
Calls of active or inactive are those of the source. The rule behind the calls is not given here.
ASSAY METRIC: Activity

Completed entries (count: 6):
Problem: Enter recorded Activity with DNA for `CC(=O)Nc1ccc(NC(=O)c2sc3ccccc3c2Cl)cc1` here.
Result: inactive

Problem: Enter recorded Activity with DNA for `O=C(Nc1ccc([N+](=O)[O-])cc1)c1sc2ccccc2c1Cl` here.
Result: inactive

Problem: Enter recorded Activity with DNA for `Nc1ccc(NC(=O)c2sc3ccccc3c2Cl)cc1` here.
Result: inactive

Problem: Enter recorded Activity with DNA for `CN(C)c1ccc(NC(=O)c2sc3ccccc3c2Cl)cc1` here.
Result: inactive

Problem: Enter recorded Activity with DNA for `CC(=O)Nc1ccc2[nH]c(=O)c3sc4ccccc4c3c2c1` here.
Result: inactive

Problem: Enter recorded Activity with DNA for `CN(C)c1ccc2[nH]c(=O)c3sc4ccccc4c3c2c1` here.
Result: inactive

Continuing:
Problem: Enter recorded Activity with DNA for `Nc1ccc2[nH]c(=O)c3sc4ccccc4c3c2c1` here.
Result: inactive

###

# METHOD DESCRIPTION: Cytotoxicity against human H460 cells after 72 hrs by MTT assay
# Assay type: functional, cell-based, NCI-H460
# CONDITION SUMMARY: nci-h460
ASSAY METRIC: IC50 (µM)
API: value field is a number in µM; no unit string.

Problem: Using the record for `Nc1ccc2[nH]c(=O)c3sc4ccccc4c3c2c1` , state its measured IC50.
Result: 9
